These measurements were taken from patent US20210246204A1.

Task for the reader: assign each of the following binders its reported Receptor downregulation, (EC50) (pM).
- measurement-target: human Siglec-7 on primary human monocyte-derived dendritic cells (human, UniProt Q9Y286 19-467)
- Sequence (Q9Y286 19-467): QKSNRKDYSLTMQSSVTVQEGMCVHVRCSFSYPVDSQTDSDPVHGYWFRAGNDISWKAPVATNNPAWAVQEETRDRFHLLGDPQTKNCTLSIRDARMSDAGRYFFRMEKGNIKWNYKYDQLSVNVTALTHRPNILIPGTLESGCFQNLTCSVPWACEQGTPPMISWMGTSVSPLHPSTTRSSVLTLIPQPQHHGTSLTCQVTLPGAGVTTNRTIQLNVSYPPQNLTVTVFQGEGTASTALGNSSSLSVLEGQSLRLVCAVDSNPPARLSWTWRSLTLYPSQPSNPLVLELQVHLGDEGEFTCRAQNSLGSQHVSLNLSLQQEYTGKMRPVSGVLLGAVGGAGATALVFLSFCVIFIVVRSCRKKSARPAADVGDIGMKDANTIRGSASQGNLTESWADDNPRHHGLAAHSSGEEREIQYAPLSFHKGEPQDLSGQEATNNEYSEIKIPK
- assay-name: cell-based or functional assay
The reply should be a number in pM, with the unit left off.

Find the measured Receptor downregulation, (EC50) (pM) of S7AB-H8.31 (antibody, V domains shown) VH: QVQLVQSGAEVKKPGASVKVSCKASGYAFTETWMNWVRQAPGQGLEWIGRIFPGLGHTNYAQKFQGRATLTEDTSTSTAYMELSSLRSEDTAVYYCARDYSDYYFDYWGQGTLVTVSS VL: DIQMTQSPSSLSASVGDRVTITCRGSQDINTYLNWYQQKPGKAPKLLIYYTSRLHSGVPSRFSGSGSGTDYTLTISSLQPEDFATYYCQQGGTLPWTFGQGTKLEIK and report it.
143

Find the measured Receptor downregulation, (EC50) (pM) of S7AB-H8.6 (antibody, V domains shown) VH: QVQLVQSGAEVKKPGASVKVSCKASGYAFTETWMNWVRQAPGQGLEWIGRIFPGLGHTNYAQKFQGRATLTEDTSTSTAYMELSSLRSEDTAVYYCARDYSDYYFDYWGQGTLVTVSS VL: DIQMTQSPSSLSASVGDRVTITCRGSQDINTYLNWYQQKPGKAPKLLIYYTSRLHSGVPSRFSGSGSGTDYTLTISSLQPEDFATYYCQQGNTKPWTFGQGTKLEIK and report it.
154
